Reference for the values: PubChem BioAssay (NCI)

Test system: SF-539 CNS
Protocol Summary: NCI-60 one-dose screen, 48 h (100 = growth as untreated, 0 = no growth, -100 = all killed)
Conditions: 10 µM unless noted
This is part of a sample that, as a whole, favours compounds with a hit. Of some 83,000 tested, about 20% had one in any assay. The source made the active and inactive calls. The calls were made as follows: active = growth percent below 10; inactive = the rest.
Listed here are molecules together with their documented growth.

# Molecule, growth
rows = [
    ("Cc1c(C(N)=O)sc2ncn(CC(=O)NN=C3CCCCC3)c(=O)c12", "105% (inactive)"),
    ("Cc1cc2nc(CN)[nH]c2cc1C", "106% (inactive)"),
    ("COc1cc(C2CC(c3ccc(Cl)cc3)=NN2C=O)ccc1Oc1ccnc2cc(Cl)ccc12 (stereo unspecified)", "66.2% (inactive)"),
    ("NC(=O)c1ccc[n+](Cc2ccccc2)c1", "96.7% (inactive)"),
    ("CC(=O)NC1C(O[C@H]2C[C@H]3[C@@H]4CC=C5C[C@@H](O)CC[C@]5(C)[C@H]4CC[C@]3(C)[C@H]2[C@H](C)C(=O)CCC(C)C)OCC(O)C1O (stereo partly specified)", "-26.2% (active)"),
    ("CCS(=O)(=O)Nc1cccc(Nc2c3cccc(C)c3nc3c(C)cccc23)c1OC", "-41.3% (active)"),
    ("O=C1Nc2ccccc2/C1=C\\c1nc(C2CCN(S(=O)(=O)c3ccc(F)cc3)CC2)n2ccccc12", "27.4% (inactive)"),
    ("Cc1ccc(OC2=C(C#N)C(=N)N3C(=NN2)Sc2c(C)ccc(C)c23)cc1", "102% (inactive)"),
    ("COc1ccc(C(=O)OC2C(OC3C(O)COC(O[C@H]4C[C@H]5[C@@H]6CC=C7C[C@@H](O)CC[C@]7(C)[C@H]6CC[C@]5(C)[C@H]4[C@H](C)C(=O)CCC(C)C)C3OC(=O)C(C)C)OCC(O)C2O)cc1 (stereo partly specified)", "-66.2% (active)"),
    ("CCCNCCC(C)=O", "114% (inactive)"),
    ("CCN(CC)CCNC(=O)n1cc(-c2ccncc2)c(-c2ccc(Cl)c(OC)c2)n1", "75% (inactive)"),
    ("CC(C)CCSc1nc(-c2ccc(F)cc2)c(C#N)c(N2CCCCC2)n1", "107% (inactive)"),
    ("COc1ccc(C(=O)C(CN(C)C)c2ccc(OC)cc2)cc1 (stereo unspecified)", "78.8% (inactive)"),
    ("O=C(/C=C/c1ccco1)c1ccccc1O", "98.2% (inactive)"),
    ("CC1=CC(=O)OC1C/C=C(\\C)CCC1[C@@]2(C)CCC[C@@](C)(C(=O)O)C2CC[C@@]1(C)O (stereo partly specified)", "81.3% (inactive)"),
    ("O=C(NCCN1CCCCC1)n1cc(-c2ccncc2)c(-c2ccc(Cl)c(O)c2)n1", "91.3% (inactive)"),
    ("CC(=O)Oc1c(Cl)c(Cl)c(Cl)c(Cl)c1Cl", "86.3% (inactive)"),
    ("COc1ccc(Oc2nc(Nc3ccc(N4CCOCC4)cc3)ncc2NC(=O)Nc2cccc(OC)c2)cc1", "28.3% (inactive)"),
    ("Clc1ccc(-c2cnc3c(-c4ccnc(N5CCNCC5)c4)cnn3c2)cc1", "-82.4% (active)"),
    ("O=C(CCCCCCN1CC(=O)N2[C@@H](c3ccc(Cl)c(Cl)c3)c3[nH]c4ccccc4c3C[C@H]2C1=O)NO", "52% (inactive)"),
    ("COc1ccc(-c2cc(C(=O)Nc3ccc(C)cc3)nc3[nH]c(=O)sc23)cc1", "75.6% (inactive)"),
    ("Clc1cccc(CNc2c3ccccc3nc3ccccc23)c1", "9.28% (active)"),
    ("ClC1(Cl)C2CCCCCCC21 (stereo unspecified)", "117% (inactive)"),
    ("CCOC(=O)C(CCCCC(NC(C)=O)(C(=O)OCC)C(=O)OCC)(NC(C)=O)C(=O)OCC", "109% (inactive)"),
    ("CC[C@]1(O)C[C@H]2CN(CCc3c([nH]c4ccccc34)C(C(=O)OC)(c3cc4c(cc3OC)N(C)[C@H]3[C@@](O)(C(=O)OC)[C@H](OC(C)=O)[C@]5(CC)[C@@H]6C[C@@H]6CN6CC[C@]43[C@@H]65)C2)C1 (stereo partly specified)", "-22% (active)"),
    ("CSc1nc(N)c2[nH]c(-c3cc4ccccc4[nH]c3=O)nc2n1", "102% (inactive)"),
    ("COc1cc2c(c(OC)c1O)C(=O)C(OC)C(c1ccc(O)c(O)c1)O2 (stereo unspecified)", "-23% (active)"),
    ("O=P(O)(O)C(O)(Cc1cccnc1)P(=O)(O)O", "101% (inactive)"),
    ("O=[N+]([O-])c1ccc(N/N=C\\c2ccc(O)cc2O)nc1", "37.5% (inactive)"),
    ("CC(=O)Oc1ccccc1C(=O)Nc1ncc([N+](=O)[O-])s1", "39.5% (inactive)"),
    ("CC(C)c1cccc(C#N)c1", "109% (inactive)"),
    ("Cc1c2c(cc3c1[nH]c1ccccc13)C=NCC2", "92.8% (inactive)"),
    ("COC(=O)c1ccc2c(c1)nc(-c1ccc(Cl)cc1)n2-c1cc(C(C)(C)C)[nH]n1", "60.4% (inactive)"),
    ("COc1ccc(C2NC(=O)c3cc4c(cc3N2)OCO4)cc1 (stereo unspecified)", "8.24% (active)"),
    ("O=c1c2cc(Cl)ccc2oc2ccc(OCCCCCN3CCCCCC3)cc12", "94.1% (inactive)"),
    ("N#Cc1ccc(-c2ccc(-c3cccs3)o2)cc1F", "78.1% (inactive)"),
    ("COc1ccccc1-[n+]1cc(-c2ccc(-c3ccccc3)cc2)n2c1CCCCC2", "18.2% (inactive)"),
    ("COc1ccc2c(c1)OC1=C(C(=O)OC1)C2c1cc(OC)c2c(c1)OCCO2 (stereo unspecified)", "3.93% (active)"),
    ("CCCCCCCCCCCC1=NC(C)(C)CN1CC(C)O (stereo unspecified)", "63.8% (inactive)"),
    ("O=C(O/C(=C/c1ccccc1)C(F)(F)F)c1ccccc1", "103% (inactive)"),
    ("COc1ccc2nc(-c3ccc(-c4noc(-c5ccc(Cl)cc5)n4)cc3)[nH]c2c1", "77.2% (inactive)"),
]
